The measurements presented in this section are drawn from patent US6653478B2.

Measured Target: UniProt:P47901
Sequence (P47901 1-424): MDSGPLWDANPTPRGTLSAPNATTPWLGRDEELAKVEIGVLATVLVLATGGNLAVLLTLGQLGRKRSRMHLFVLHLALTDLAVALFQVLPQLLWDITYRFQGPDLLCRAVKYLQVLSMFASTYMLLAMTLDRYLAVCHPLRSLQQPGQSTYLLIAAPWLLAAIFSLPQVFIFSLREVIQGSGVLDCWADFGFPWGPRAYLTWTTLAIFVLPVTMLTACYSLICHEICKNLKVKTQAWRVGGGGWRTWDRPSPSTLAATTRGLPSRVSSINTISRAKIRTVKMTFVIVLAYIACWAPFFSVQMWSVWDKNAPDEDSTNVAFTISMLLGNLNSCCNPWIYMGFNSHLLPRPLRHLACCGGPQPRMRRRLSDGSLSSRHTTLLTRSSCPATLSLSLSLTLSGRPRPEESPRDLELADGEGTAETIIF
Test: V1b binding assay (3H-AVP displacement, HEK-293 membranes)
Set-up: expressed in transfected cells; host or cells: HEK-293 (membranes)
Condition Summary: 1.0 μM compound; read-out: V1b@1.0, % Inh
Result Type: inhibition at 1 µM (%)

Enquiry: Note inhibition at 1 µM for the compound shown: O=C1CCCN1CCCn1c(=O)n(C2CCN(C(=S)NC(c3ccccc3)c3ccccc3)CC2)c2ccccc21 [Compound 175]
Return: 23

[a] O=c1n(CCCN2CCCCC2)c2ccccc2n1C1CCN(C(=S)NC2CCCCC2)CC1 [Compound 125]
[b] O=c1n(CCCN2CCCCC2)c2ccccc2n1C1CCN(C(=S)Nc2ccccc2F)CC1 [Compound 115]
Enquiry: inhibition at 1 µM comparison. Which is larger, a or b ? // output: label of the selected item
Return: a

[A] O=C(Nc1ccccc1-c1ccccc1)N1CCC(n2c(=O)n(CCCN3CCCCC3)c3ccccc32)CC1 [Compound 162]
[B] O=c1n(CCCN2CCCCC2)c2ccccc2n1C1CCN(C(=S)NCCCc2ccccc2)CC1 [Compound 133]
Enquiry: Compare the recorded inhibition at 1 µM of A and B ; state which is larger. # reply format: chosen label
Return: B

[1] O=c1n(CCCN2CCCCC2)c2ccccc2n1C1CCN(C(=S)NCc2ccc(Cl)c(Cl)c2)CC1 [Compound 174]
[2] O=c1n(CCCN2CCCCC2)c2ccccc2n1C1CCN(C(=S)Nc2ccc3c(c2)OCO3)CC1 [Compound 156]
Enquiry: Compare the recorded inhibition at 1 µM of 1 and 2 ; state which is larger. Select an item and report its label.
Return: 1
(1: 34%, 2: 22%)
